# IC50 values compiled below
# assay_target: Fatty acid synthase (Homo sapiens)
# Sequence (P49327 whole entry): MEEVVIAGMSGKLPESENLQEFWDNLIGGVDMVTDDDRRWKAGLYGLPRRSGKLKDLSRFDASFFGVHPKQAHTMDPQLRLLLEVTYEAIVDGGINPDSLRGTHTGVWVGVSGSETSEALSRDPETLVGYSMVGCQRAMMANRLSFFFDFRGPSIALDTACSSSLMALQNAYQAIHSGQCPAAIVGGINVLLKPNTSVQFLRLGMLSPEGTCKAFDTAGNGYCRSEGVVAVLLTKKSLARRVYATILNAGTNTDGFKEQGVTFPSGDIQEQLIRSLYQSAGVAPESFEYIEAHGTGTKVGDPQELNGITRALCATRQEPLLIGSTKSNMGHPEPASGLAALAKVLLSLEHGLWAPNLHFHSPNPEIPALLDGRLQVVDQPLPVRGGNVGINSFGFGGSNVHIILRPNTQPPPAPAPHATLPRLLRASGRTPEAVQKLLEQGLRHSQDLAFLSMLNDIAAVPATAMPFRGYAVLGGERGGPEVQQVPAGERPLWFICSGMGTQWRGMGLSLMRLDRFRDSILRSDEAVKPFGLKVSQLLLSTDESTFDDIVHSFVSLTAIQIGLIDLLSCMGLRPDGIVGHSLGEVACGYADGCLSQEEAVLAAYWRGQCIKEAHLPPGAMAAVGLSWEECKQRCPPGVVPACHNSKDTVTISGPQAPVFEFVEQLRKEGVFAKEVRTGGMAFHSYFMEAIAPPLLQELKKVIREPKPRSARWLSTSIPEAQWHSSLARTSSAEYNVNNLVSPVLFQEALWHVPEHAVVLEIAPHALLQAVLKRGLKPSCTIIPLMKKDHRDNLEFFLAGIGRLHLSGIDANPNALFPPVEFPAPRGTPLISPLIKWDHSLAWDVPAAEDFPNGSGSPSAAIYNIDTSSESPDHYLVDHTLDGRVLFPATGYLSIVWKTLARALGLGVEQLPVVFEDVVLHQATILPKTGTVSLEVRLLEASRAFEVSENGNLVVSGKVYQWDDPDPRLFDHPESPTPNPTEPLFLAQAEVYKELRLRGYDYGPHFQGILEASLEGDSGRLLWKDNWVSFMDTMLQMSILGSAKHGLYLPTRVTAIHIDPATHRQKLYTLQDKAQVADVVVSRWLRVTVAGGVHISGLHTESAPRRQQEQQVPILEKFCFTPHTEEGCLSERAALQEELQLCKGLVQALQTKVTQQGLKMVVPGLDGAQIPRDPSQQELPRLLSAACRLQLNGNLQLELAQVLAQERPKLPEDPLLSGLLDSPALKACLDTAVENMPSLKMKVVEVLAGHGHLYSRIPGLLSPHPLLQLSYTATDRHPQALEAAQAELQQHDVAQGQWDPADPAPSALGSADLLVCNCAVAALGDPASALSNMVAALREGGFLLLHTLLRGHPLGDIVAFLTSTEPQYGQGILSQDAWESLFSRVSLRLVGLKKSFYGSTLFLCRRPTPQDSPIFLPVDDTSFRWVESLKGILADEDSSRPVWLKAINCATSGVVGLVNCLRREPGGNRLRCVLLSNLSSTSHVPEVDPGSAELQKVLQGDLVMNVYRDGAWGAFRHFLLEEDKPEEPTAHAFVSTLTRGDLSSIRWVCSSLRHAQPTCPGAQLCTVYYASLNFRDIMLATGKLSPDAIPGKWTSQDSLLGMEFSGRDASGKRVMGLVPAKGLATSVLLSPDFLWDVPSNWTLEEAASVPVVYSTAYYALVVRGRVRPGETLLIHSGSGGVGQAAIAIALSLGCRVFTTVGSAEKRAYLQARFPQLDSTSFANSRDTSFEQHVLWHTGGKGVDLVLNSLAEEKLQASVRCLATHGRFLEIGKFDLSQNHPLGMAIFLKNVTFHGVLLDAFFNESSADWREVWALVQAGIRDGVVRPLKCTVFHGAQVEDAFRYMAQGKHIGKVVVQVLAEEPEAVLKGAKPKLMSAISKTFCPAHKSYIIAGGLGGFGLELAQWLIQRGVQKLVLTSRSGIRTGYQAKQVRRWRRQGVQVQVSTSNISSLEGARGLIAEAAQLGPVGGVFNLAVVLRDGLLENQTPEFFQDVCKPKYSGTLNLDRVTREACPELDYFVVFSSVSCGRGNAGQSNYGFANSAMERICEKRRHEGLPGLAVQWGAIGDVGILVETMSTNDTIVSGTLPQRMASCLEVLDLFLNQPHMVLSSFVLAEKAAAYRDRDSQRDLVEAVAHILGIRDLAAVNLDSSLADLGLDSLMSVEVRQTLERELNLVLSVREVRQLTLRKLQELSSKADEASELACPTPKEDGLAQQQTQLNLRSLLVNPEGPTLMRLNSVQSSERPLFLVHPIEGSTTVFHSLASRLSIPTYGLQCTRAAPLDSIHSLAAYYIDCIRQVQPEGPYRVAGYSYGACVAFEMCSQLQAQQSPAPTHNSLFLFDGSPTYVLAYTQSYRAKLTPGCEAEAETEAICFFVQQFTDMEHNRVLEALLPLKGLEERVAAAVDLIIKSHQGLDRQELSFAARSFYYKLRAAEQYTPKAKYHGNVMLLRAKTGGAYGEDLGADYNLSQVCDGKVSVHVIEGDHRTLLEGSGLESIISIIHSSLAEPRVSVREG
# assay: inhibition of human FAS-TE enzyme activity – biochemical, endpoint fluorescence intensity, uHTS hits, dose response (AID 624327);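 note: fluorescence from hydrolysis of an O-methyl fluorescein acyl ester substrate by the enzyme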
# Assay type: functional
The source made the active and inactive calls.
readout_label: IC50

1) CC(C)(C)N1C(=O)[C@H]2[C@@H](c3ccc(Br)cc3)N3C(=O)N(c4cccc(F)c4)C(=O)[C@@]3(Cc3ccccc3)[C@H]2C1=O : 19.8 µM (active)
2) COC(=O)N1C(=O)[C@](c2ccc(OC)cc2)(C(C)C)N1C(=O)OC : 3.86 µM (active)
3) Cc1ccc(S(=O)(=O)N2C[C@H]3[C@H]4C(=O)N(c5ccccc5)C(=O)[C@H]4CC(=O)[C@H]3[C@@H]2c2cccc3ccccc23)cc1 : 21.6 µM (inactive)
4) O=C(/C=C/c1cccc([N+](=O)[O-])c1)N1CCN(c2ccc(F)cc2)CC1 : 2.32 µM (active)
5) Cc1noc(C)c1NC(=O)Nc1cccc2c1O[C@H](CN(C)C(=O)NC1CCCCC1)[C@@H](C)CN([C@H](C)CO)C2=O : 2.47 µM (active)
6) CCOC(=O)[C@]12Cc3cc(Cl)ccc3[C@H]1N(C1CCCCC1)C(=O)c1cc(OC)ccc12 : 2.71 µM (active)
7) O=C(CC1C[C@H](C(=O)N2CCOCC2)[C@@]2(CCC3CCCC3)c3[nH]c4ccccc4c3CCN2C1=O)NCc1cccc(C(F)(F)F)c1 (some centres undefined) : 4.98 µM (active)
8) CCCCC(=O)N/N=C/c1cc([N+](=O)[O-])ccc1N1CCOCC1 : 4.56 µM (active)
9) COc1ccccc1N1CCN(C(=O)C(C)NC(=O)c2cccc([N+](=O)[O-])c2)CC1 (centres undefined) : 2.72 µM (active)

----------
# IC50 values compiled below
# assay_target: Rac GTPase-activating protein 1 (Homo sapiens, UniProt Q9H0H5)
# Sequence (Q9H0H5 whole entry): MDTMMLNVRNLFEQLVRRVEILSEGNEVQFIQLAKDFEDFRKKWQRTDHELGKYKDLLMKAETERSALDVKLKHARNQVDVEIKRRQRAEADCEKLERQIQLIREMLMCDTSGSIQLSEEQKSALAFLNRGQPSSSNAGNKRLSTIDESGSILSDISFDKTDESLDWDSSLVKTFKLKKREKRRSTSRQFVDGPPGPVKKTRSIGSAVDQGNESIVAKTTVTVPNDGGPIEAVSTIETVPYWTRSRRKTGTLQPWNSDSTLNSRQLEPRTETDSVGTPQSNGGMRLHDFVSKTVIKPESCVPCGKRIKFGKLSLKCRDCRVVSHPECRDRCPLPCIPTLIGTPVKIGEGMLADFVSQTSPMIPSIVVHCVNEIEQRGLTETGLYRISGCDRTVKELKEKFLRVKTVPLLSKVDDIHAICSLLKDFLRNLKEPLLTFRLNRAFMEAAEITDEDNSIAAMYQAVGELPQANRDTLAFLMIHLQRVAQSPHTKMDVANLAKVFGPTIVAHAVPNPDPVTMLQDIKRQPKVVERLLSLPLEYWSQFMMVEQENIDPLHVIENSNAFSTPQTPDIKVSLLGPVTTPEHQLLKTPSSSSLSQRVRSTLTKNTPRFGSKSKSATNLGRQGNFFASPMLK
# assay: blockers of MgcRacGAP-driven Rac1 GTP hydrolysis – biochemical, ADP Hunter fluorescence, primary and confirmatory, confirmation (AID 624330)
# Type: functional
Active and inactive are the calls of the source.
readout_label: IC50

1. c1ccc(CCNCCCOc2cccc3ccccc23)cc1 : 156 µM (active)
2. Nc1ccc(-c2nc3ccc(N)cc3s2)cc1 : 70.2 µM (active)
3. Cc1nc(Cc2nnc(SCC(=O)N3CCN(c4ccc(O)cc4)CC3)o2)cs1 : 30 µM (active)

----------
# assay_target: Short transient receptor potential channel 4 (Mus musculus, UniProt Q9QUQ5)
# Sequence (Q9QUQ5 whole entry): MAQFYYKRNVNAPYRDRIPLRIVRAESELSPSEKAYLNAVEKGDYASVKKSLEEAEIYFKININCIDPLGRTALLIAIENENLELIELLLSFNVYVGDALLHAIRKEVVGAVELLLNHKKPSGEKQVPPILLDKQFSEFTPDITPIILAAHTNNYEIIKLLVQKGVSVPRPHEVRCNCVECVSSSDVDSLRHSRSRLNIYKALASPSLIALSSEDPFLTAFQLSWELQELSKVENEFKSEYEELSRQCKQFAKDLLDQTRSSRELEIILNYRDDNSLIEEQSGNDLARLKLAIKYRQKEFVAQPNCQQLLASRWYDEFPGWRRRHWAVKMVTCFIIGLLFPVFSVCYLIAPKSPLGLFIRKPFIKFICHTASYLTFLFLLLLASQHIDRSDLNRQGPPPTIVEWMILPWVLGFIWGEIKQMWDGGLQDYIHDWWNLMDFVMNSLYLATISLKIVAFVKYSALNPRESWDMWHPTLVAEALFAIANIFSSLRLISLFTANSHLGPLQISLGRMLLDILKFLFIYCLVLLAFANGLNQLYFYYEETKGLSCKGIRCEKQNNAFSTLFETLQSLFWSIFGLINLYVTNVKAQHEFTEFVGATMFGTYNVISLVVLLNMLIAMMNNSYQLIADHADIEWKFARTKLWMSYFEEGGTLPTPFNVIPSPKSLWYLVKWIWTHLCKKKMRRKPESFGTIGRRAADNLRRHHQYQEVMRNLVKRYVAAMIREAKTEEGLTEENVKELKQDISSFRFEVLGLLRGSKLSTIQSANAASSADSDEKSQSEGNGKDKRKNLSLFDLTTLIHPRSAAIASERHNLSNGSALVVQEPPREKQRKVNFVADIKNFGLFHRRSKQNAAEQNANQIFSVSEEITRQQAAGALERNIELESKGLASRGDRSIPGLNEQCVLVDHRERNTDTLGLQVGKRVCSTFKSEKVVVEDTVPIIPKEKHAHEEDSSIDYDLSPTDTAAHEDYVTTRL
# assay: calcium entry via TRPC4 opening agents – cell-based, HEK293 TRPC4/mu-opioid, Fluo-4 calcium, dose response (AID 434937)
# Assay type: functional
Calls of active or inactive are those of the source.
readout_label: EC50

1) Cc1ccc2c(C)c(C(=O)N(Cc3cccs3)C3CCS(=O)(=O)C3)oc2c1 (stereo not drawn) : 2660 nM (active)
2) CCOC(=O)C1(CC2CC2)CCN(Cc2c[nH]nc2-c2ccccc2)CC1 : 1330 nM (active)
3) Cc1ccc(C[n+]2c(-c3ccc(C)cc3)cc(-c3ccc(C)cc3)cc2-c2ccc(C)cc2)cc1.[O-][Cl+3]([O-])([O-])[O-] : 5310 nM (active)
